Entry source: the supplement of paper PMC10567573

assay: protein stability index of a GFP-peptide fusion (GPS, HEK-293T) (PSI 1-6); higher = more stable; conditions: treatment: DMSO; c terminus: a fixed tail appended;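 further: 24-mer peptide tiles fused after GFP, lentivirally expressed, FACS-sorted into six equal bins by GFP/DsRed ratio, decoded by Illumina sequencing, PSI is the read-weighted mean bin number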
REPORTED ENDPOINT: protein stability index
Just the number.

Recorded protein stability index, per entry:
INSERT INTO measurements (seq_text, reported_endpoint, meas_value) VALUES
  ('LKASMRELGLLIFFLFIGVILFSS [KCNA1]', 'protein stability index', 2.33),
  ('DLLHGPECRSSVTSDSEGAHVNTL [PHTF1]', 'protein stability index', 4.33),
  ('TQGQEKMMMMGPKEEEQSCEYETR [ZNF232]', 'protein stability index', 5.42),
  ('TPNASSPGNPTALANGTVQAPKQK [LPCAT4]', 'protein stability index', 5.31),
  ('LIGGLEAQLSELRCEMEAQNQEYK [KRT15]', 'protein stability index', 4.1),
  ('YKSVLQAVQKTDEGHPFKAYLELE [RTN1]', 'protein stability index', 3.43),
  ('ILENSSQKENVFKCDSLKEECIPE [FAN1]', 'protein stability index', 4.68),
  ('GGYGGGVSCGFGGGAGSGFGGGYG [KRT13]', 'protein stability index', 2.23),
  ('RVILEIDNARLAVDDFRLKYENEL [KRT13]', 'protein stability index', 2.4),
  ('PQDQAGPGGAPRVASRNLFPKDTL [CLPTM1]', 'protein stability index', 4.41);

Query: Please look up its protein stability index: VMVRWNKSLEWSPWNCILLTKDEA [IQUB]
Response: 2.57

Query: Please look up its protein stability index: MHGNEALGRELMLQLSEFLCEEFR [CPN1]
Response: 2.24

Query: Please look up its protein stability index: VPDREEGGSGGGGGGDEDGSLGSR [SMAD6]
Response: 5.59

Query: Please look up its protein stability index: DSRRIFVGQDNGAVMEFHVSEDFN [WDFY1]
Response: 4.07

Query: Please look up its protein stability index: APDLVLNAEMVQQTTYLEDRPMFM [LOXL2]
Response: 3.25

Query: Please look up its protein stability index: YFQSVTSNRWLMVKIFLILIVFFI [STX5]
Response: 2.85

Query: Please look up its protein stability index: PGLLSLATTSASDSLKPEQLDIEE [TFE3]
Response: 5.35

Query: Please look up its protein stability index: `EVSCQCQLHPPRWYSRLQACQWGG`
Response: 2.17

Query: Please look up its protein stability index: KSYIFEGALGMSNRDSYFYAAIVA [VMA21]
Response: 2.96
